- System: KG-1
- assay notes: Cellular Proliferation Assay (Cell Counting Kit-8), KG-1
- Assay type: cell-based
- experimental conditions: Homo sapiens; KG-1 cells, 72 hours; read-out: KG1 IC50
Measured IC50 by item
endpoint: IC50 (µM)

| molecule | assay system | recorded measurement |
| --- | --- | --- |
| CCN(CC)CCNC(C)c1ccc(Nc2ncc(OCc3cc(C(=O)NC)cc(OC)c3Cl)cn2)cc1 (centres unmarked) | KG-1 | 0.04 |
| CNC(=O)c1cc(COc2cnc(Nc3cccc(S(C)(=O)=O)c3)nc2)c(F)c(OC)c1 | KG-1 | 0.035 |
| CCN1CCN(c2ccc(Nc3ncc(OCc4cc(C(=O)NC)cc(OC)c4Cl)cn3)cn2)CC1 | KG-1 | 0.018 |
| C#Cc1cccc(Nc2ncc(OCc3cc(C(=O)NC)cc(OC)c3F)cn2)c1 | KG-1 | 0.166 |
| CCCN1CC(c2ccc(Nc3ncc(OCc4cc(C(=O)NC)cc(OC)c4F)cn3)cn2)C1 | KG-1 | 0.162 |
| CNC(=O)c1cc(COc2cnc(Nc3ccc(CCN(C)C)cc3)nc2)c(F)c(OC)c1 | KG-1 | 0.007 |
| CNC(=O)c1cc(OC)c(Cl)c(COc2cnc(Nc3ccc(N4C[C@@H](C)N[C@@H](C)C4)c(F)c3)nc2)c1F | KG-1 | 0.007 |
| CNC(=O)c1cc(COc2cnc(Nc3ccc([C@@H]4CCCNC4)nc3)nc2)c(Cl)c(OC)c1 | KG-1 | 0.362 |
